Molecular target: T1, ZIKV (prM80E) with a C-terminal myc-myc-hexahistidine tag (Zika virus, UniProt A0A024B7W1 104-694)
T1 construct: also called ZIKV (prM80E)-mmH; ZIKV-mmH
Assay: SPR, mAb captured, 37C
Classify on t½ pH 7.4/t½ pH 5.0 using c1: < 1; c2: ≥ 1 and < 4; c3: ≥ 4

1) H4H25703N (antibody, V domains shown) VH: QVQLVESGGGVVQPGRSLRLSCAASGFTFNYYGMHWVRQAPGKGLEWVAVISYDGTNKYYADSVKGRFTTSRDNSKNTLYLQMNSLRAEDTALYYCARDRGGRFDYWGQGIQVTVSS VL: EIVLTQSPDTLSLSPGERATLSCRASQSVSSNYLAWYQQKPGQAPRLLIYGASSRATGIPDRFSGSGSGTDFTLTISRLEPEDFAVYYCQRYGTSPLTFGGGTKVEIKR; c2
2) H4H25637P (antibody, V domains shown) VH: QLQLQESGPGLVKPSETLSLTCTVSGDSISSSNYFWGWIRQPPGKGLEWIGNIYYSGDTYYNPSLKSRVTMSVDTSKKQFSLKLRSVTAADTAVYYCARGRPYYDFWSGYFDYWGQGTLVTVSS VL: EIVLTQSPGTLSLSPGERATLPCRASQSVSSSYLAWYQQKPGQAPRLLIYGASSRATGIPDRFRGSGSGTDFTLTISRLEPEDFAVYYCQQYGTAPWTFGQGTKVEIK; c1
3) H4H25566P (antibody, V domains shown) VH: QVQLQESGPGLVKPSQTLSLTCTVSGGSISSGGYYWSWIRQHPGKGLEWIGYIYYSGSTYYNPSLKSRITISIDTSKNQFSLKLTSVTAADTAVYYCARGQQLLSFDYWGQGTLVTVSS VL: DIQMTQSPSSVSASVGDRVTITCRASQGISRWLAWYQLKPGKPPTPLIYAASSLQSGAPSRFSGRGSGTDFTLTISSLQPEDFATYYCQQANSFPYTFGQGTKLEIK; c3
4) H4H25602P (antibody, V domains shown) VH: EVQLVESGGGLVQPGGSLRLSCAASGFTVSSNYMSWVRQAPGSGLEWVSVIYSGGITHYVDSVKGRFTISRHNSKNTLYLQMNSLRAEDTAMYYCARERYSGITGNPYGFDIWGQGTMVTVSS VL: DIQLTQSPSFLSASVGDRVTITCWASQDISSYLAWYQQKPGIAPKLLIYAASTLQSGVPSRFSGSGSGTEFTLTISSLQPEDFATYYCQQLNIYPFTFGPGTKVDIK; c3
5) H4H25598P (antibody, V domains shown) VH: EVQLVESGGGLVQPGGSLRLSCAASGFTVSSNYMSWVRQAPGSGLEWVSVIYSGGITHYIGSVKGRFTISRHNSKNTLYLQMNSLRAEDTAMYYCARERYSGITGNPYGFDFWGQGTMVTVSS VL: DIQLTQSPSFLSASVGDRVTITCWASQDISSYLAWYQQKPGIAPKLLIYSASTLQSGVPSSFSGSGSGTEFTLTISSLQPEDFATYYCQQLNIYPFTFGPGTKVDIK; c3
6) H4H25592P (antibody, V domains shown) VH: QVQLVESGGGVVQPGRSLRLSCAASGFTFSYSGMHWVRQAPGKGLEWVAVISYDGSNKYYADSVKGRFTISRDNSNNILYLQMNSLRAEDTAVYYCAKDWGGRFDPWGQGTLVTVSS VL: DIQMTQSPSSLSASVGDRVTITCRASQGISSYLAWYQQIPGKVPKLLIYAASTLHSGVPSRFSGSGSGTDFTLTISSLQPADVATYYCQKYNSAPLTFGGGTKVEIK; c2
7) H4H25704N (antibody, V domains shown) VH: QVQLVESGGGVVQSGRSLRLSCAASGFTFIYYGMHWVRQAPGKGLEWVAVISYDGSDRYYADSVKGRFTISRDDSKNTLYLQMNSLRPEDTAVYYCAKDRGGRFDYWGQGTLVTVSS VL: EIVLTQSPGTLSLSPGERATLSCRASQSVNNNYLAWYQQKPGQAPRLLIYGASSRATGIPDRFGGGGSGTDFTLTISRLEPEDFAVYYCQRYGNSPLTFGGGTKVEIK; c1
8) H4H25640P (antibody, V domains shown) VH: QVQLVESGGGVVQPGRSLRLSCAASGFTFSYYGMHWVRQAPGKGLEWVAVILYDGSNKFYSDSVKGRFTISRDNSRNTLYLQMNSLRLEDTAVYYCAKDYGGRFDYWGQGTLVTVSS VL: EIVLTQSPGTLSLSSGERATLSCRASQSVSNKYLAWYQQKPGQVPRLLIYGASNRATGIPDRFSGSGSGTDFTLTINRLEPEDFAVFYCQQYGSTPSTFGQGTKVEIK; c2
9) H4H25617P (antibody, V domains shown) VH: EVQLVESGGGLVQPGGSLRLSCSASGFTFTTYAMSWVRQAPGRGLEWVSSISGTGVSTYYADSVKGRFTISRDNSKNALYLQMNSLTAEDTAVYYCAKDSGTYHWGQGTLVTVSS VL: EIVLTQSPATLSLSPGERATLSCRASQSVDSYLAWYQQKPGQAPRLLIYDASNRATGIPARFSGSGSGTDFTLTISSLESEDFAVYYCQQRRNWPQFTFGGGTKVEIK; c1
